Recorded measurements of pIC50, one per entry
# MEASUREMENT TARGET: UniProt Q9Y6L7
# Sequence (Q9Y6L7 whole entry): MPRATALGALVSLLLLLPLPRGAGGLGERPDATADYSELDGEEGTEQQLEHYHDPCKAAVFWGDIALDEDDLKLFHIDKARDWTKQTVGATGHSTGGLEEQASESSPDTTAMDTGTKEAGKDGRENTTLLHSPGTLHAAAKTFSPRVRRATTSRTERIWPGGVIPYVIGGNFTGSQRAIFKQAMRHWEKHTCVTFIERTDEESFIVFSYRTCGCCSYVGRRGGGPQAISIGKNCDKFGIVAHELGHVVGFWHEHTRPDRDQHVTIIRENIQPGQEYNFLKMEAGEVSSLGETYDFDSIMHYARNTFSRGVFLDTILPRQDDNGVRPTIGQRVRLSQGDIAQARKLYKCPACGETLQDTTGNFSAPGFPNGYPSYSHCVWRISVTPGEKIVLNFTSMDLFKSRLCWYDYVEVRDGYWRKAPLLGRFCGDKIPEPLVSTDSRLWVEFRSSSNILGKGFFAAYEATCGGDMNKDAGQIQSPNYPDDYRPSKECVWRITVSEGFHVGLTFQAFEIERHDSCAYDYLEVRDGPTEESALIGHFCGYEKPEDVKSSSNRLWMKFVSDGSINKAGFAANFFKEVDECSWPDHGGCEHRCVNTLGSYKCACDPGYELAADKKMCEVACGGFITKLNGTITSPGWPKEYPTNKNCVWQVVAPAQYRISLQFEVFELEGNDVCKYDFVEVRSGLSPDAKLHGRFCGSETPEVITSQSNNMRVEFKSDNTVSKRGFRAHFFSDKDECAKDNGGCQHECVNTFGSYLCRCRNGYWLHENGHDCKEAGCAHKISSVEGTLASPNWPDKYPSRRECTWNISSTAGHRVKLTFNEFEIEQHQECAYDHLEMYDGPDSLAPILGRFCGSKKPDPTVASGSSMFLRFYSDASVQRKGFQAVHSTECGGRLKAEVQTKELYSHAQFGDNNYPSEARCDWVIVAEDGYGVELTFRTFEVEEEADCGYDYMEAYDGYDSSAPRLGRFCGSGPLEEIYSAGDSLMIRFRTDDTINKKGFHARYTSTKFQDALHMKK
# ASSAY COMMENT: Inhibition of C-terminal Avi-6x-His epitope tagged and N-terminal human RAGE signal sequence tagged recombinant human TLL2 (26 to 1015 amino acids) expressed in CHOE1A cells incubated for 60 mins with promyostatin peptide substrate by FRET based assay
pIC50: −log10 of the molar value.
OBSERVABLE: pIC50

INSERT INTO assay_data (structure_notation, measurement_target, observable, test_value) VALUES
  ('CCCCC[C@@H](C(=O)NCNC(=O)c1cccc(-c2cc(C(=O)OCC)cc(S(N)(=O)=O)c2)n1)[C@@H](CC)N(O)C=O', 'UniProt Q9Y6L7', 'pIC50', '> 6.20'),
  ('CCCCC[C@H](CN(O)C=O)C(=O)NCNC(=O)c1cccc(-c2cccc(F)c2)c1', 'UniProt Q9Y6L7', 'pIC50', '> 6.20'),
  ('CCCCC[C@H](CN(O)C=O)C(=O)NCNC(=O)c1cncc(-c2ccccc2)n1', 'UniProt Q9Y6L7', 'pIC50', '> 6.20'),
  ('CCCCC[C@@H](C(=O)NCNC(=O)c1cccc(-c2ccc(C(=O)N(CC(=O)O)CC(=O)O)c(OCC)c2)n1)[C@@H](CC)N(O)C=O', 'UniProt Q9Y6L7', 'pIC50', '> 6.20'),
  ('CCCCC[C@@H](C(=O)NCNC(=O)c1cccc(-c2ccc(C(=O)N[C@@H](CC(=O)O)C(=O)O)c(F)c2)n1)[C@@H](CC)N(O)C=O', 'UniProt Q9Y6L7', 'pIC50', '> 6.20'),
  ('CCCCC[C@@H](C(=O)NCNC(=O)c1cccc(-c2cc(OCC)cc(C(=O)N(CC(=O)O)CC(=O)O)c2)n1)[C@@H](CC)N(O)C=O', 'UniProt Q9Y6L7', 'pIC50', '> 6.20'),
  ('CCCCC[C@H](CN(O)C=O)C(=O)NCNC(=O)c1cccc(-c2cccc(OC)n2)n1', 'UniProt Q9Y6L7', 'pIC50', '> 6.20'),
  ('COc1cc(-c2cccc(C(=O)NCNC(=O)[C@H](CCc3ccccc3)CN(O)C=O)c2)c(OC)nn1', 'UniProt Q9Y6L7', 'pIC50', '> 6.20'),
  ('CCCCC[C@@H](C(=O)NCNC(=O)c1cncc(-c2ccc(P(=O)(O)O)c(OCC)c2)n1)[C@@H](CC)N(O)C=O', 'UniProt Q9Y6L7', 'pIC50', '> 6.20'),
  ('CCCCC[C@@H](C(=O)NCNC(=O)c1cccc(-c2ccc(C(=O)O)cc2C)n1)[C@@H](CC)N(O)C=O', 'UniProt Q9Y6L7', 'pIC50', '> 6.20'),
  ('O=CN(O)C[C@@H](CC1CCCC1)C(=O)NCNC(=O)c1cccc(-c2cccc(O)c2)c1', 'UniProt Q9Y6L7', 'pIC50', '> 6.20'),
  ('COc1cncc(-c2cccc(C(=O)NCNC(=O)[C@H](CC3CCCC3)CN(O)C=O)c2)c1', 'UniProt Q9Y6L7', 'pIC50', '> 6.20'),
  ('CCCCC[C@H](CN(O)C=O)C(=O)NCNC(=O)c1cccc(-c2cccc(C(C)C)c2)c1', 'UniProt Q9Y6L7', 'pIC50', '> 6.20'),
  ('CCCCC[C@H](CN(O)C=O)C(=O)NCNC(=O)c1cccc(-c2cnc(C)o2)c1', 'UniProt Q9Y6L7', 'pIC50', '> 6.20'),
  ('CCOc1cccc(-c2cccc(C(=O)NCNC(=O)[C@H](CC3CCCC3)CN(O)C=O)c2)c1', 'UniProt Q9Y6L7', 'pIC50', '> 6.20'),
  ('CCCCC[C@@H](C(=O)NCNC(=O)c1cccc(-c2ccc(C(=O)N[C@H](CC(=O)O)C(=O)O)cc2)n1)[C@@H](CC)N(O)C=O', 'UniProt Q9Y6L7', 'pIC50', '> 6.20');
